# assayed.system: hGLP-1R (Homo sapiens)
# Sequence (P43220 24-463): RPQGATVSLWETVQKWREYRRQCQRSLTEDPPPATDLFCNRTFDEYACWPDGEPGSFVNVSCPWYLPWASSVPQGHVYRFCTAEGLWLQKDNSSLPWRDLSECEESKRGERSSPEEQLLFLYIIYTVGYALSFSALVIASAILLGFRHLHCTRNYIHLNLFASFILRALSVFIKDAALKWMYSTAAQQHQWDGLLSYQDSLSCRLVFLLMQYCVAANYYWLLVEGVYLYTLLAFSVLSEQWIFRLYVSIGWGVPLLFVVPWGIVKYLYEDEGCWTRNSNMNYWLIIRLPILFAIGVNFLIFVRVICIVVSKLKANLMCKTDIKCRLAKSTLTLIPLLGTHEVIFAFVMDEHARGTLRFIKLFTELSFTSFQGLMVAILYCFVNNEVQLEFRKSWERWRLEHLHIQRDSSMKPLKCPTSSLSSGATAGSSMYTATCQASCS
# experimental.details: Functional cAMP activation in the presence of 0.1% casein (no HSA);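 further: intracellular cAMP rise after 30 min at 37 °C read by HTRF, normalized between buffer only (0%) and maximal control ligand (100%), four-parameter variable-slope fit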
# Assay type: cell-based
# applied.conditions: in the presence of 0.1% casein (no HSA); geometric mean; read-out: Relative cAMP EC50, hGLP-1R
Starred links: 1 amine or outer side, 2 acyl side, 3 side chain; linkers in the order of their positions; H or OH if unused. Non-standard residues stand in square brackets, D forms with d. Groups on a side chain read outwards from the residue. No end group written: not given here. *: point of attachment. C20 diacid = O=C(O)CCCCCCCCCCCCCCCCCCC(=O)*; C18 diacid = O=C(O)CCCCCCCCCCCCCCCCC(=O)*; γGlu = O=C(O)[C@H](CCC(=O)[*:2])N[*:1]; αMe4Pal = C[C@](N)(Cc1ccncc1)C(=O)O; 4Pal = N[C@@H](Cc1ccncc1)C(=O)O; αMeL = CC(C)C[C@](C)(N)C(=O)O; Orn = NCCC[C@H](N)C(=O)O; AEEA = NCCOCCOCC(=O)O; Aib = CC(C)(N)C(=O)O
Label label 1 when EC50 is strictly below 2 nM; otherwise label label 0.

{"columns": ["substance", "group"],
 "data": [
  ["H-Y[Aib]QGTFTSD[4Pal]SQ[αMeL]LD[Orn]K([γGlu-γGlu-C18 diacid])AQ[αMe4Pal]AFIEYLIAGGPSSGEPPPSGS-NH2 [Example 1007]", "label 1"],
  ["Y[Aib]QGTFTSDYSI[αMeL]LDKQAAK([AEEA-AEEA-γGlu-C20 diacid])QFIEYLIA[Aib]GPSSGEPPPSEG-NH2 [Example 349]", "label 1"],
  ["Y[Aib]QGTFTSD[4Pal]SQ[αMeL]LDKK([γGlu-γGlu-C18 diacid])AQ[αMe4Pal]AFIE[αMe4Pal]LIE[Aib]GPSSGAPPPSGEE-NH2 [Example 1121]", "label 0"],
  ["H-Y[Aib]QGTFTSD[4Pal]SQ[αMeL]LDKK([AEEA-AEEA-γGlu-C18 diacid])AQ[αMe4Pal]AFIEYLIE[Aib]GPSSGAPPPSGS-NH2 [Example 816]", "label 0"],
  ["H-Y[Aib]QGTFTSD[4Pal]SR[αMeL]LDKK([AEEA-γGlu-C18 diacid])AQ[Aib]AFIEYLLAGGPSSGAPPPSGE-NH2 [Example 113]", "label 0"],
  ["H-Y[Aib]QGTFTSD[4Pal]SK[αMeL]LDKK([AEEA-γGlu-C18 diacid])AQ[αMe4Pal]AFIE[αMe4Pal]LIE[Aib]GPSSGAPPPSGS-NH2 [Example 916]", "label 1"],
  ["H-Y[Aib]QGTFTSD[4Pal]SQ[αMeL]LD[Orn]K([γGlu-γGlu-C18 diacid])AQ[αMe4Pal]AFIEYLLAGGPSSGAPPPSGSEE-NH2 [Example 1056]", "label 0"],
  ["H-Y[Aib]QGTFTSD[4Pal]SQ[αMeL]LDKK([γGlu-γGlu-C18 diacid])AQ[αMe4Pal]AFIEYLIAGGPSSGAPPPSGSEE-NH2 [Example 960]", "label 1"],
  ["H-Y[Aib]QGTFTSD[4Pal]SK[αMeL]LDKK([γGlu-γGlu-C18 diacid])AQ[Aib]AFIEYLIE[Aib]GPSSGAPPPSGSE-NH2 [Example 904]", "label 1"],
  ["Y[Aib]QGTFTSDYSI[αMeL]LDKQAAK([AEEA-AEEA-γGlu-C20 diacid])QFVEWLLAGGPSSGEPPPGEG-NH2 [Example 320]", "label 0"],
  ["H-Y[Aib]QGTFTSDFS[Orn][αMeL]LDKK([AEEA-γGlu-C20 diacid])AQ[Aib]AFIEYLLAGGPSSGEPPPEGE-NH2 [Example 102]", "label 0"]
]}
